- tgt: Glucose transporter (Leishmania mexicana)
- protocol-description: ST_JUDE_LEISH: Cytotoxicity at 2uM final concentration against transgenic Leishmania Mexicana promastigotes LmGT2 that are glucose transport deficient and complemented with the L. Mexicana glucose transporter 2. Activity is measured by DNA content using SYBR green in vitro
- Assay type: functional
observable: inhibition (%)

# compound, tgt, measured-number
measured = [
    ("CN1C(=CC(=O)NC(=O)c2ccccc2)C(C)(C)c2ccccc21", "Glucose transporter (Leishmania mexicana)", 0.4),
    ("CCN(CC)CCN(Cc1ccc(-c2ccc(C(F)(F)F)cc2)cc1)C(=O)CN1C(CCc2cccc(F)c2F)=NS(=O)(=O)c2ccccc21", "Glucose transporter (Leishmania mexicana)", -3.12),
    ("COc1ccc(CCc2ccc(-c3c(C)[nH]c(C)c(Cl)c3=O)cc2)cc1OC", "Glucose transporter (Leishmania mexicana)", 10.6),
    ("CC1(C)N=C(N)N=C(N)N1c1cccc(I)c1", "Glucose transporter (Leishmania mexicana)", 0.13),
    ("CCN(CC)CCN(Cc1ccc(-c2ccc(C(F)(F)F)cc2)cc1)C(=O)Cn1c(CCc2ccc(F)cc2)nc(=O)c2sccc21", "Glucose transporter (Leishmania mexicana)", 2.92),
    ("Cc1cc(OCC2CCN(c3ncc(C(=O)Nc4ccccc4)cc3Cl)CC2)ccc1F", "Glucose transporter (Leishmania mexicana)", 0.4),
    ("COC(=O)Cc1ccc(N)c2ccccc12", "Glucose transporter (Leishmania mexicana)", -2.13),
    ("CCCCCN1C(=O)C(c2ccccc2)(c2ccccc2)N=C1N", "Glucose transporter (Leishmania mexicana)", 4.92),
    ("Cc1ccc(CN2CCCCC(NC(=O)c3cc4ccccc4s3)C2)cc1 (stereo not given)", "Glucose transporter (Leishmania mexicana)", -8.68),
    ("Cc1cccc(-c2nc3[nH]c(=O)cc(NC(=O)C(C)C)n3n2)c1", "Glucose transporter (Leishmania mexicana)", -1.3),
    ("CC(C)COc1ccc(C(O)C(CN2CCCCC2)c2ccccc2)cc1 (stereo not given)", "Glucose transporter (Leishmania mexicana)", 3.27),
    ("CC[C@H](C)CNC(=O)c1cccc(-c2cccc(CNCC3CNCCCO3)c2)n1 (stereo not given in full)", "Glucose transporter (Leishmania mexicana)", -0.09),
    ("Cc1cccc2nc(-c3cccc(-c4cccc(CNCCCN5CCCC5=O)c4)c3)[nH]c12", "Glucose transporter (Leishmania mexicana)", -1.17),
    ("CC(C)C1CCc2nc(N)nc(N)c2C1 (stereo not given)", "Glucose transporter (Leishmania mexicana)", 0.91),
    ("Clc1ccc2c(NCCc3ccccc3)ccnc2c1", "Glucose transporter (Leishmania mexicana)", 2.56),
    ("COc1ccccc1-c1cccc(-c2cccc(NC(=O)c3ccc([N+](=O)[O-])o3)c2)n1", "Glucose transporter (Leishmania mexicana)", 9.06),
    ("N#Cc1ccc2c(c1)CCN(CCC1CCC(NC(=O)/C=C/c3ccc4[nH]ccc4c3)CC1)CC2 (stereo not given)", "Glucose transporter (Leishmania mexicana)", 0.13),
    ("COc1ccc(CNC2CCN(C)CC2)cc1-c1ccc(S(=O)(=O)NCc2cccnc2)s1", "Glucose transporter (Leishmania mexicana)", 5.84),
    ("O=C(Cc1c[nH]cn1)Nc1cccc(-c2ccc(-c3nc4cc(C(F)(F)F)ccc4[nH]3)cc2)c1", "Glucose transporter (Leishmania mexicana)", 1.97),
    ("N#Cc1cccc(NC(=O)c2ccc(S(=O)(=O)NCC3CCCN3CC3CCCCC3)cc2)c1 (stereo not given)", "Glucose transporter (Leishmania mexicana)", 1.88),
    ("O=C(NC(Nc1ccc([N+](=O)[O-])cc1)C(Cl)(Cl)Cl)c1ccc(Cl)cc1 (stereo not given)", "Glucose transporter (Leishmania mexicana)", -2.78),
    ("Cc1cc(N2CCCC2=O)ccc1-c1ccc(C(=O)N2CCC(Oc3cccc(Cl)c3)CC2)cc1", "Glucose transporter (Leishmania mexicana)", 3.87),
    ("CN(c1ccccc1)S(=O)(=O)c1cccc(NC(=O)c2ccc(-n3ccnc3)c([N+](=O)[O-])c2)c1", "Glucose transporter (Leishmania mexicana)", 0.73),
    ("O=C(N[C@H]1CCN(Cc2ccc(OCCCN3CCCCC3)cc2)C1)c1cc(Cl)cc(Cl)c1", "Glucose transporter (Leishmania mexicana)", 2.29),
    ("COc1ccc(Nc2ncc(C#N)c(Nc3ccccc3C(N)=O)n2)cc1N1CCN(C)CC1", "Glucose transporter (Leishmania mexicana)", 9.63),
    ("CN(C)CCNC(=O)c1cccc(-c2cnc3ccc(NCc4ccc(Cl)c(Cl)c4)nn23)c1", "Glucose transporter (Leishmania mexicana)", 7.6),
    ("O=C(/C=C/c1ccc(Cl)c(Cl)c1)NCCCCCN1CCC(NC(=O)c2ccc(F)cc2)CC1", "Glucose transporter (Leishmania mexicana)", 5.01),
    ("O=C(c1ccc(-c2ccc(Cl)cc2)o1)N1CCc2cc3nccc(N4CCN5CCC[C@H]5C4)c3cc21", "Glucose transporter (Leishmania mexicana)", 0.64),
    ("Cn1cncc1CCN(Cc1ccc(-c2ccc(C(F)(F)F)cc2)cc1)C(=O)Cn1c(CCc2cccc(F)c2F)cc(=O)c2cccnc21", "Glucose transporter (Leishmania mexicana)", -0.14),
    ("CC(C)(C)C1CCc2nc(N)nc(N)c2C1 (stereo not given)", "Glucose transporter (Leishmania mexicana)", 46.5),
    ("COc1cc2c(cc1C(F)(F)F)N(C(=O)Nc1ccc(Br)cn1)CC2", "Glucose transporter (Leishmania mexicana)", -1.31),
    ("Cc1nc2ccc(-c3ccc(OC(F)(F)F)cc3)cc2c(O)c1C#N", "Glucose transporter (Leishmania mexicana)", -1.44),
    ("O=C(CCc1cccnc1)Nc1ccc(-c2cccc(-c3nc4cc(F)ccc4[nH]3)c2)cc1", "Glucose transporter (Leishmania mexicana)", 8.65),
    ("CC(C)Cc1c(O)nc(SCCN2CCOCC2)[nH]c1=O", "Glucose transporter (Leishmania mexicana)", -0.43),
    ("C=CCn1ccc2c3c(N)nc(N)nc3ccc21", "Glucose transporter (Leishmania mexicana)", 44.1),
    ("O=C(Nc1ccc(Cn2ncc(N3CCCNCC3)c(Cl)c2=O)cc1)Nc1cccc(SC(F)(F)F)c1", "Glucose transporter (Leishmania mexicana)", 0.05),
    ("Fc1ccc(Nc2ccnc3cc(-c4ccc(CN5CCOCC5)o4)ccc23)c(Cl)c1", "Glucose transporter (Leishmania mexicana)", 7.49),
    ("NC(=S)Cc1ccc2c(c1)OCO2", "Glucose transporter (Leishmania mexicana)", -0.59),
    ("O=C(NCCN1CCN(S(=O)(=O)c2ccc(OC3CCNCC3)c(Br)c2)CC1)c1ccc(Cl)c(Cl)c1", "Glucose transporter (Leishmania mexicana)", 4.49),
    ("Cc1[nH]c(C)c(-c2ccc(-c3ccccc3Cl)nc2)c(=O)c1Cl", "Glucose transporter (Leishmania mexicana)", 3.11),
]
